Counter-ions that a name gives are not always drawn.
Measurement record for Candida krusei IFO 0584; quantity recorded: log10(MIC).
In our notation, the value equals log10 of MIC in µg/mL.

{"compound": "CN(C)Cc1cc2c(o1)CN(C(=O)c1ccc(C(=O)c3ccc(Cl)cc3)cc1)CC2 [Example 31, hydrochloride]", "log10(MIC)": 1.20}
{"compound": "CCCCCCCc1ccc(C(=O)N2CCc3cc(CN(C)C)oc3C2)cc1 [Example 21, hydrochloride]", "log10(MIC)": 0.00}
{"compound": "CN(C)Cc1cc2c(o1)CCN(C(=O)c1ccc(C(=O)c3ccc(Cl)cc3)cc1)C2 [Example 32, hydrochloride]", "log10(MIC)": 1.51}
{"compound": "CN(C)Cc1cc2c(o1)CN(C(=O)c1ccc(/C=C\\c3ccccc3)cc1)CC2 [Example 33, hydrochloride]", "log10(MIC)": 0.90}
{"compound": "CN(C)Cc1cc2c(o1)CN(C(=O)CCCCSc1ccccc1)CC2 [Example 43, hydrochloride]", "log10(MIC)": 1.20}
{"compound": "CN(C)Cc1cc2c(o1)CCN(C(=O)CCCCCc1ccccc1)C2 [Example 6, hydrochloride]", "log10(MIC)": 0.60}

[Q] State recorded log10(MIC) with Candida krusei IFO 0584, entry CN(C)Cc1cc2c(o1)CN(C(=O)CCCCCc1ccc(F)cc1)CC2 [Example 27, hydrochloride] , no comment.
[A] 0.60
